Where do the numbers come from? From patent CN116693678A.

# TESTED SYSTEM: 肺炎支原体天然抗原(购自Microbix) (Mycoplasma pneumoniae)
# TEST SUMMARY: indirect ELISA on coated antigen (2 ug/ml), antibody 0 ng/ml (blank well)
Mark each entry 1 (yes) if its OD值 (450nm, 参考630nm) sits below 0.04 OD, and 0 (no) for all others.

1) Anti-MP-11F5mut5 (antibody, mouse IgG1, kappa, V domains shown) VH: QVQLQQSGPELVKPGALVKISCKASGYTFTSFDINWVKQRPGQGLEWIGYIYPGDGSTKYNEKFKGKATLTADKSSSTAYMQFSSLTSENSAVYFCTRKGGWGAGHSAMDYWGQGTSVTVSS VL: DIQMTQTTSSLSASLGDRVTISCRASQAISNYLNWYQQRPDGTVKLLIYYTSRKNSGAPSRFSGSGSGTDYSLTISNIDQEDIATYFCQQGYTTPYTFGGGTKLEIKR: 1 (yes)
2) Anti-MP-11F5mut4 (antibody, mouse IgG1, kappa, V domains shown) VH: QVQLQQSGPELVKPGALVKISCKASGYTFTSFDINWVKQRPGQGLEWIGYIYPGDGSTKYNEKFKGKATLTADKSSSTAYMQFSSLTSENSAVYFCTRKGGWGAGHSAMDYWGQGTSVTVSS VL: DIQMTQTTSSLSASLGDRVTISCRASQAISNYINWYQQRPDGTVKLLIYYTSRKNSGAPSRFSGSGSGTDYSLTISNLDQEDIATYFCQQGYTTPYTFGGGTKLEIKR: 0 (no)
3) Anti-MP-11F5mut6 (antibody, mouse IgG1, kappa, V domains shown) VH: QVQLQQSGPELVKPGALVKISCKASGYTFTSFDINWVKQRPGQGLEWIGYIYPGDGSTKYNEKFKGKATLTADKSSSTAYMQFSSLTSEDSAVYFCTRKGGWGAGHSAMDYWGQGTSVTVSS VL: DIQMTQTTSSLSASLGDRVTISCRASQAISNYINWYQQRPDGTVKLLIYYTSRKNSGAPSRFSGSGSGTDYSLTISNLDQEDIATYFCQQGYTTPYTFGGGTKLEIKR: 0 (no)
4) Anti-MP-11F5mut1 (antibody, mouse IgG1, kappa, V domains shown) VH: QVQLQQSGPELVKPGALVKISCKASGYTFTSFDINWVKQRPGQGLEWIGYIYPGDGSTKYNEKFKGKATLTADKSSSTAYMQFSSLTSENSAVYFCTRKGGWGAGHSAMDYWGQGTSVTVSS VL: DIQMTQTTSSLSASLGDRVTISCRASQAIGNYLNWYQQRPDGTVKLLIYYTSRKNSGAPSRFSGSGSGTDYSITISNLDQEDIATYFCQQGYTTPYTFGGGTKLEIKR: 1 (yes)
5) Anti-MP-11F5mut7 (antibody, mouse IgG1, kappa, V domains shown) VH: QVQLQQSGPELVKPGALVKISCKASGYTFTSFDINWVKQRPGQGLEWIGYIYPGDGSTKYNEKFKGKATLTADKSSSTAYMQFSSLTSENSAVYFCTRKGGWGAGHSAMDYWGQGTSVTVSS VL: DIQMTQTTSSLSASLGDRVTISCRASQAISNYINWYQQRPDGTVKLLIYYTSRKNSGAPSRFSGSGSGTDYSLTISNIDQEDIATYFCQQGYTTPYTFGGGTKLEIKR: 1 (yes)
6) Anti-MP-11F5mut8 (antibody, mouse IgG1, kappa, V domains shown) VH: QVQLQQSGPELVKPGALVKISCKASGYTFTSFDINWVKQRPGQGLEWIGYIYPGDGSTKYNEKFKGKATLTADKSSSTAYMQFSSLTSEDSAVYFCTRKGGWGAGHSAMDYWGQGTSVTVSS VL: DIQMTQTTSSLSASLGDRVTISCRASQAISNYINWYQQRPDGTVKLLIYYTSRKNSGAPSRFSGSGSGTDYSLTISNIDQEDIATYFCQQGYTTPYTFGGGTKLEIKR: 1 (yes)
